Measured values drawn from patent US20090042785A1 for this set.

Target: T1, human CTLA-4-Fc (Chimerigen) (human, UniProt P16410 36-161; P01857 99-330 = IgG part, limits assumed)
T1 construct: extracellular domain;domain: Fc portion; Bought protein; also called hCTLA-4-Fc; huCTLA-4-Ig
T1 sequence (P16410 other isoform, or with tags, fused parts or gaps mutant limits assumed): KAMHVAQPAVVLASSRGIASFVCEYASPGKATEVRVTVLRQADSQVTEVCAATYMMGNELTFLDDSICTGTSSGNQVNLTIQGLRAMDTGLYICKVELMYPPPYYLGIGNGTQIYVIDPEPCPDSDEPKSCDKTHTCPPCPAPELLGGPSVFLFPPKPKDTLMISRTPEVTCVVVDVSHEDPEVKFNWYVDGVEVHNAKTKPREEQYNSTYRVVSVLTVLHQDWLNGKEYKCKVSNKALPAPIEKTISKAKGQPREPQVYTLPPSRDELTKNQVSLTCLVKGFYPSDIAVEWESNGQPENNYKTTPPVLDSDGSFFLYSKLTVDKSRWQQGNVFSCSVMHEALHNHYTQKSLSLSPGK
Test: SPR, Fc fusion captured via anti-human IgG Fc
EXPERIMENTAL ENDPOINT: Kd (nM)

INSERT INTO assay_data (binder, meas_value) VALUES
  ('hNGAL mutein S106.3-O19 (designed binder) QDSTSDLIPAPPLSKVPLQQNFQDNQFHGKWYVVGLAGNRILRDDQHPMNMYATIYELKEDKSYNVTSVIFPHKKCEHTIATFVPGSQPGEFTLGNIKSYGDKTSYLVRVVSTDYNQHAMVFFELVEDNAGFFAITIYGRTKELASELKENFIRFSKSLGLPENHIVFPVPIDQCIDGSAWSHPQF', 22),
  ('hNGAL mutein S109.6-J11 (designed binder) QDSTSDLIPAPPLSKVPLQQNFQDNQFHGKWYVVGLAGNRILRDDQHPMNMYATIYELKEDKSYNVTSVIFPHKKCEYTFATFVPGSQPGEFTLGNIKSYGDKTSYLVRVVSTNYNQHATVFFKLAEDNAEFFAVTIYGRTKELASELKENFIRFSKSLGLPENHIVFPVPIDQCIDGSAWSHPQF', 20),
  ('hNGAL mutein S67.3-C21 (designed binder) QDSTSDLIPAPPLSKVPLQQNFQDNQFHGKWYVVGLAGNYIWRNDRYPMQMYATIYELKEDKSYNVTSVIFDTKKCEYPIATFVPGSQPGEFTLGNIKSYRMDTSYLVRVVSTNYNQHAMVFFKQVNHNTEHFAITIYGRTKELASELKENFIRFSKSLGLPENHIVFPVPIDQCIDGSAWSHPQF', 20);
